# Target Entity: T1, HMMW micropeptide (recombinant, purified from Escherichia coli BL21) (human)
# T1 construct: also called purified HMMW micropeptide; human HMMW micropeptide
# T1 peptide: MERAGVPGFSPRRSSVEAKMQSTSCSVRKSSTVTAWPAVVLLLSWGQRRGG
# Procedure Summary: indirect ELISA, HMMW micropeptide coated at 1 ug/ml, antibody dilution 1:100K
Reported Property: ELISA reading at antibody dilution 1:100K

INSERT INTO assay_data (binder, numeric_result) VALUES
  ('Anti-HMMW antibody-2 (antibody, V domains shown, Mouse monoclonal antibody from a BALB/c x SP2/0 hybridoma; also called anti-HMMW-2 antibody) VH: EVKLEESGGGLVQPGGSMKVSCVGSGFTFSNYWMNWVRQSPEKGLEWVAEIRLKSNNYATHYAESVKGRFTISRDDSKRSVYLQMNNLRVEDTGIYYCTTEAVDYWGQGTSVTVSS VL: DIVMTQAAFSNPVTLGTSASISCRSSKSLLHSNGITYLYWYLQKPGQSPQLLIYQMSNLASGVPDRFSSSGSGTDFTLRISRVEAEDVGVYYCAQNLELPTFGGGTKLEIKR', 2.73),
  ('Anti-HMMW antibody-4 (antibody, V domains shown, Mouse monoclonal antibody from a BALB/c x SP2/0 hybridoma; also called anti-HMMW-4 antibody) VH: EVKLEESGGGLVQPGGSMKLSCVASGFTFSDYWMNWVRQSPEKGLEWLTEIRLKSNNYLTHYAESVKGRFTISRDDSKSSVYLQMNNLRAEDTGIYYCSVETMDYWGQGISVTVSS VL: QAVVTQESALTTSSGETVTLTCRSSTGAVTTSNYANWVQEKPDHLFTGLIRGTNNRAPGVPARFSGSLIGDKAALTITGAQTEDEAIYFCALWYSNHWVFGGGTKLTVL', 2.57),
  ('Anti-HMMW antibody-3 (antibody, V domains shown, Mouse monoclonal antibody from a BALB/c x SP2/0 hybridoma; also called anti-HMMW-3 antibody) VH: EVKLEESGGGLVQPGGSMKLSCVASGFTFSDYWMNWVRQSPEKGLEWLTEIRLKSDNYATHYAESVKGKFTISRDDSKSTVYLQMNNLRAEDTGIYYCSVETMDFWGQGTSVTVSS VL: QAVVTQESALTTSPGETVTLTCRSSIGAVTTNNYANWVQEKPDRLFTGLIRGTNNRVPGVPARFSGSLIGDKAALTITGAQTEDEAIYFCALWYSNHWVFGGGTKLTVL', 2.54),
  ('Anti-HMMW antibody-5 (antibody, V domains shown, Mouse monoclonal antibody from a BALB/c x SP2/0 hybridoma; also called anti-HMMW-5 antibody) VH: EVKLEESGGGLVQPGGSMKLSCVVSGFTFSNYWMNWVRQSPERGLEWVAEIKLKSNNYATLYAASVKGRFTISRDDSKSSVYLQVNNLRTEDTGIYYCITEIFDYWGQGTTLTVSS VL: QTVVTQESALTTSPGETVTLTCRSSTGSVTTSNYATWVQEKPDHLFTGLIVGANNRAPGVPARFSGSLIGDKAALTITGAQTEDEAIYFCALWFIDHWVFGGGTKLTVL', 2),
  ('Anti-HMMW antibody-1 (antibody, V domains shown, Mouse monoclonal antibody from a BALB/c x SP2/0 hybridoma; also called anti-HMMW-1 antibody) VH: EVKLEESGGGLVQPGGSMKFSCVASGFTFSNYWMNWVRQSPERGLEWVAEIKLKSNNYATLYAESVKGRFTISRDDSKSSVYLQVNNLRAEDTGIYYCITEIFDYWGQGTTLTVSS VL: QAVVTQESALTTSPGETVTLTCRSSTGAVTTSNYATWVQEKPDHLFTGLIVGANNRAPGVPARFSGSLIGDKAALTITGAQTEDEAIYFCALWFLNHWVFGGGTKLTVLG', 1.14),
  ('Anti-HMMW antibody-6 (antibody, V domains shown, Mouse monoclonal antibody from a BALB/c x SP2/0 hybridoma; also called anti-HMMW-6 antibody) VH: EVKLEESGGGLVQPGGSMKLSCVASGFTFSNYWMNWVRQSPEKGLEWVAEIRLKSNNYATHYAESVTGRFTISRDDSKSSVYLQMNNLRAEDTGIYYCTLEAVDYWGQGTSVTVSS VL: DIVMTQAAFSNPVTLGTSASISCRSSKSLLHSDGITYLYWFLQKPGQSPQLLIYQMSNLASGVPDRFSSSGSGTDFTLRISRVEAEDVGVYYCAQNLELPTFGGGTKLEIK', 2.16);
